Test Protocol: Metabolic stability of peptides in fresh human plasma (LC/MS/MS)
Assay type: in vitro ADME
Settings: fresh human plasma, 8 h incubation
Square brackets hold non-standard residues; d marks the D form. Peptide text beside a SMILES is read from it.
Quantity: remaining at 8 h, 1 µM (%)

Molecule	Quantity	Value Reported
CC(C)C[C@H](NC(=O)[C@H](CCC(=O)O)NC(=O)[C@H](CCC(=O)O)NC(=O)[C@H](CC(=O)O)NC(=O)[C@H](CCC(=O)O)NC(=O)[C@H](CCC(=O)O)NC(=O)[C@H](CCC(=O)O)NC(=O)[C@H](N)CC(=O)O)C(N)=O [8M1D, dEEEDEEL-NH2] (H-[dD]EEEDEEL-NH2)	remaining at 8 h, 1 µM	100

====

Test Protocol: Metabolic stability of peptides in fresh human plasma (LC/MS/MS)
Type: in vitro ADME
Settings: fresh human plasma, 24 h incubation
Square brackets hold non-standard residues; d marks the D form. Peptide text beside a SMILES is read from it.

Molecule	remaining at 24 h, 1 µM / %
CC(C)C[C@H](NC(=O)[C@H](CCC(=O)O)NC(=O)[C@H](CCC(=O)O)NC(=O)[C@H](CC(=O)O)NC(=O)[C@H](CCC(=O)O)NC(=O)[C@H](CCC(=O)O)NC(=O)[C@H](CCC(=O)O)NC(=O)[C@H](N)CC(=O)O)C(N)=O [8M1D, dEEEDEEL-NH2] (H-[dD]EEEDEEL-NH2)	89.6

====

Test Protocol: PK analysis of 8M2D in transgenic mice (APPSWE), plasma
Settings: mouse, in vivo, sc, 250 mg/kg, Day 1, Mean over the 10, 50 and 250 mg/kg doses (N 3), read-out: t1/2, Mean (converted)
Square brackets hold non-standard residues; d marks the D form. Peptide text beside a SMILES is read from it.

Compound	half-life, h
CC(=O)N[C@H](CC(=O)O)C(=O)N[C@@H](CCC(=O)O)C(=O)N[C@@H](CCC(=O)O)C(=O)N[C@@H](CCC(=O)O)C(=O)N[C@@H](CC(=O)O)C(=O)N[C@@H](CCC(=O)O)C(=O)N[C@@H](CCC(=O)O)C(=O)N[C@@H](CC(C)C)C(N)=O [8M2D, Ac-dEEEDEEL-NH2] (Ac-[dD]EEEDEEL-NH2)	6.06

====

Test Protocol: PK analysis of 8M2D in transgenic mice (APPSWE), plasma
Settings: mouse, in vivo, sc, 10 mg/kg, Day 1, 10 mg/kg, read-out: Cl/F
Square brackets hold non-standard residues; d marks the D form. Peptide text beside a SMILES is read from it.
Quantity: CL/F (mL/min/kg)

Compound	Quantity	Value Reported
CC(=O)N[C@H](CC(=O)O)C(=O)N[C@@H](CCC(=O)O)C(=O)N[C@@H](CCC(=O)O)C(=O)N[C@@H](CCC(=O)O)C(=O)N[C@@H](CC(=O)O)C(=O)N[C@@H](CCC(=O)O)C(=O)N[C@@H](CCC(=O)O)C(=O)N[C@@H](CC(C)C)C(N)=O [8M2D, Ac-dEEEDEEL-NH2] (Ac-[dD]EEEDEEL-NH2)	CL/F	13

====

Test Protocol: Metabolic stability of peptides in fresh human plasma (LC/MS/MS)
Format: in vitro ADME
Settings: fresh human plasma, 3 h incubation
Square brackets hold non-standard residues; d marks the D form. Peptide text beside a SMILES is read from it.

Compound	Units Label	remaining at 3 h, 1 µM
CC(C)C[C@H](NC(=O)[C@H](CCC(=O)O)NC(=O)[C@H](CCC(=O)O)NC(=O)[C@H](CC(=O)O)NC(=O)[C@H](CCC(=O)O)NC(=O)[C@H](CCC(=O)O)NC(=O)[C@H](CCC(=O)O)NC(=O)[C@H](N)CC(=O)O)C(N)=O [8M1D, dEEEDEEL-NH2] (H-[dD]EEEDEEL-NH2)	%	115
